# System: DMS-114
# EXPERIMENTAL_DETAILS: NCI tumour cell line growth inhibition, 48 h
Calls of active or inactive are those of the source. Rule as the data show it: active = GI50 up to about 1.1 µM and inactive = higher.
In this section we review reported GI50 values for a set of compounds.

Some entries whose results are on file:
COMPOUND: Cc1nc2nn(Cc3ccccc3)cc2c(=O)o1
RESULT: > 100 µM (inactive)
//
COMPOUND: Cc1cc(N(CCC#N)CCC#N)ccc1CC1N=C(c2ccccc2)OC1=O (stereo not drawn)
RESULT: > 100 µM (inactive)
//
COMPOUND: COP1(=O)Oc2ccccc2C(=O)C(C(F)(F)F)(C(F)(F)F)O1 (stereo not drawn)
RESULT: > 100 µM (inactive)

Per the record, COc1nc(NC2OCC(OC(C)=O)C(OC(C)=O)C2OC(C)=O)c(/N=C(\C)C(C)=O)c(=O)n1C (stereo not drawn) has GI50 of > 100 µM (inactive)

Per the record, CN(CCS(=O)(=O)N1C(=O)C2CCCN2C(=O)[C@@H]1Cc1ccccc1)C(=O)OCc1ccccc1 (stereo partly drawn) has GI50 of 59.6 µM (inactive)

Per the record, Nc1nc(=O)[nH]c2c1cnn2Cc1ccccc1 has GI50 of > 100 µM (inactive)

Per the record, COC(=O)C(=O)C(C(=O)C(=O)Nc1ccc(Cl)cc1C)c1nc2ccc(C(=O)c3ccccc3)cc2nc1O (stereo not drawn) has GI50 of 36 µM (inactive)

Per the record, CCCCc1c2c(nc3c1CCCC3O)/C(=C/c1ccccc1)CCC2 (stereo not drawn) has GI50 of 22.9 µM (inactive)
